Molecular target: hTP (Homo sapiens, UniProt P21731)
Construct: expressed in transfected cells; host or cells: HEK-293(EBNA) cells
Sequence (P21731 whole entry): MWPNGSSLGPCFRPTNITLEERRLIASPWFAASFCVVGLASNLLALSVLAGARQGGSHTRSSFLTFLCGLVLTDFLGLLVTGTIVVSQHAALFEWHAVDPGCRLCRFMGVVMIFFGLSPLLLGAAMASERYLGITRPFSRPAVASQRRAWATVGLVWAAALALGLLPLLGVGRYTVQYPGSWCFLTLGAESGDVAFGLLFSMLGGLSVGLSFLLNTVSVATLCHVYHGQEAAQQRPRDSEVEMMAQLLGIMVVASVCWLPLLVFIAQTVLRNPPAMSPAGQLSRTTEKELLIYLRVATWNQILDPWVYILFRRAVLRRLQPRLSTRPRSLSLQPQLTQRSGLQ
Assay: FLIPR calcium signal, HEK-293(EBNA) cells
Format: cell-based
Conditions: Table 1, second part; quantity not given, values match functional data (EC50) of first part; read-out: Other Receptors hTP
EC50 listing for selected molecules.

*Q* Param item = `O=C(O)CCCCCC[C@@H]1[C@@H](COc2cc(Cl)cc(Cl)c2)[C@H](O)C[C@H]1Cl` ; retrieve measured EC50.
*A* > 10 µM

*Q* Which EC50 value is on record for `O=C(O)CCC/C=C\C[C@@H]1[C@@H](COc2ccccc2)[C@H](O)C[C@H]1Cl` ?
*A* > 10 µM

*Q* # input molecule: `O=C(O)CCCCCC[C@H]1C(=O)CC[C@@H]1COc1ccccc1` ; wanted: its EC50
*A* > 10 µM

More entries:
*Q* Using the record for `O=C(O)CCC/C=C\C[C@@H]1[C@@H](COc2cc(Cl)cc(Cl)c2)[C@H](O)C[C@H]1Cl` , report its EC50.
*A* > 10 µM

*Q* Looking for the measured EC50 of `O=C(O)CCCCCC[C@@H]1[C@@H](COc2ccccc2)[C@H](O)C[C@H]1Cl` , can you help?
*A* > 10 µM

*Q* Consider the molecule `COC(=O)CCC/C=C\C[C@@H]1[C@@H](COc2cc(Cl)cc(Cl)c2)[C@H](O)C[C@H]1Cl` and give its measured EC50.
*A* > 10 µM
